B1: LOC100129726 (parent)
chain: VHTGCHKKLGPEARRPRTRWGKN

variants of: B1; assay: protein stability index of a GFP-peptide fusion (GPS, HEK-293T) (PSI 1-6); higher = more stable; conditions: c terminus: native;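 note: lentivirally expressed fusions sorted by FACS into six bins by GFP to DsRed ratio, PSI derived from sequencing read proportions per bin multiplied by bin number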
Collected protein stability index values appear next to each entry.
Reply briefly: the number, and no unit.

INSERT INTO results (mutant_label, recorded_value) VALUES
  ('G10K', 2.05);

Exercise: Need protein stability index of G4F , thanks.
Solution: 2.72

Exercise: Record: H2Y
Solution: 1.85

Exercise: Record: E12F
Solution: 1.23
